Reference source: patent US20100249383A1

test system: mAbGB3.1; assay: Inhibition ELISA of mAbGB3.1 binding to bovine lung proteins / immobilized BSA neoglycoproteins; set-up: species or system mouse; conditions: sulfated or phosphorylated sugars tested at or below 5 mM; data not shown
OUTCOME MEASURE: effect on mAbGB3.1 reactivity in the ELISA assay

COMPOUND	REPORTED
O=C[C@H](O)[C@@H](O)[C@H](O)[C@H](O)COS(=O)(=O)O [Glc-6-sulfate, glucose-6-sulfate]	unaffected
CC(=O)N[C@H]1C(OP(=O)(O)O)O[C@H](CO)[C@@H](O)[C@@H]1O (stereo partly drawn) [GlcNAc-1-phosphate, glucose-N-acetyl-1-phosphate]	unaffected
CC(=O)N[C@H]1C(O)O[C@H](COP(=O)(O)O)[C@@H](O)[C@@H]1O (stereo partly drawn) [GlcNAc-6-phosphate, glucose-N-acetyl-6-phosphate]	unaffected
